Species on record: Homo sapiens
protocol_summary: Selectivity for MMP13 over MMP12
Mark Criterion not met for Selectivity ratio values under 200, and Criterion met for everything at or above.

smiles_code: CCOCCC1(Oc2ccc(Oc3ccc(C(=O)NCc4cccc(F)c4)cc3)cc2)C(=O)NC(=O)NC1=O
category: Criterion not met

smiles_code: CCOCCC1(Oc2ccc(Oc3ccc(-c4nc(-c5ccccc5F)co4)cc3)cc2)C(=O)NC(=O)NC1=O
category: Criterion met

smiles_code: CCOCCC1(Oc2ccc(Oc3ccc(-c4nc(-c5cccc(F)c5)co4)cc3)cc2)C(=O)NC(=O)NC1=O
category: Criterion met

Dear colleague, could you confirm whether COCCC1(Oc2ccc(Oc3ccc(-c4nc(-c5cccc(F)c5)co4)cc3)cc2)C(=O)NC(=O)NC1=O has Selectivity ratio at or above 200?
Criterion met

Dear colleague, could you confirm whether CCOCCC1(Oc2ccc(Oc3ccc(C(=O)NCc4cccnc4)cc3)cc2)C(=O)NC(=O)NC1=O has Selectivity ratio at or above 200?
Criterion not met

Dear colleague, could you confirm whether CCOCCC1(Oc2ccc(Oc3ccc(C(=O)Nc4cccnc4)cc3)cc2)C(=O)NC(=O)NC1=O has Selectivity ratio at or above 200?
Criterion not met

Dear colleague, could you confirm whether COCCC1(Oc2ccc(Oc3ccc(-c4nc(-c5ccccc5F)co4)cc3)cc2)C(=O)NC(=O)NC1=O has Selectivity ratio at or above 200?
Criterion met

###

protocol_summary: Volume of distribution in rat
Format: ADME, organism-based
experimental_setup: in vivo, read-out: Vdss
observation_type: Vd (L/kg)
Quick note: give the figure in L/kg, leave out the unit.

I am curious: what Vd value has been reported for COCCC1(Oc2ccc(Oc3ccc(-c4nc(-c5ccc(C#N)cc5)co4)cc3)cc2)C(=O)NC(=O)NC1=O ?
0.34

###

protocol_summary: Plasma protein binding in rat
Format: ADME, cell-free
experimental_setup: read-out: PPB
observation_type: fraction unbound

I am curious: what fraction unbound value has been reported for COCCC1(Oc2ccc(Oc3ccc(-c4nc(-c5ccc(C#N)cc5)co4)cc3)cc2)C(=O)NC(=O)NC1=O ?
< 0.01

###

Recorded below: pIC50, system Collagenase 3 (Homo sapiens, UniProt P45452).
Give only the number. pIC50 is defined as minus log10 of concentration in molar units.

Reference set (5 entries):
smiles_code: COCCC1(Oc2ccc(Oc3ccc(-c4nc(-c5cccc(F)c5)co4)cc3)cc2)C(=O)NC(=O)NC1=O
pIC50: 9.34

smiles_code: COCCC1(Oc2ccc(Oc3ccc(-c4nc(-c5ccccc5C#N)co4)cc3)cc2)C(=O)NC(=O)NC1=O
pIC50: 9.14

smiles_code: CCOCCC1(Oc2ccc(Oc3ccc(C(=O)Nc4ccccn4)cc3)cc2)C(=O)NC(=O)NC1=O
pIC50: 8.41

smiles_code: CCOCCC1(Oc2ccc(Oc3ccc(-c4nc(-c5cccc(C#N)c5)co4)cc3)cc2)C(=O)NC(=O)NC1=O
pIC50: 9.28

smiles_code: CCOCCC1(Oc2ccc(Oc3ccc(-c4cc(-c5ccccc5)no4)cc3)cc2)C(=O)NC(=O)NC1=O
pIC50: 8.80

I am curious: what pIC50 value has been reported for CCOCCC1(Oc2ccc(Oc3ccc(-c4ncc(-c5ccccc5)o4)cc3)cc2)C(=O)NC(=O)NC1=O ?
8.12

I am curious: what pIC50 value has been reported for CCOCCC1(Oc2ccc(Oc3ccc(-c4nc(-c5ccccc5)no4)cc3)cc2)C(=O)NC(=O)NC1=O ?
8.47

I am curious: what pIC50 value has been reported for CCOCCC1(Oc2ccc(Oc3ccc(C(=O)NCc4ccccc4F)cc3)cc2)C(=O)NC(=O)NC1=O ?
8.96

###

system: UniProt P23097
protocol_summary: Inhibition of MMP13 in rat plasma
observation_type: IC50 (µM)
Quick note: give the figure in µM, leave out the unit.

I am curious: what IC50 value has been reported for COCCC1(Oc2ccc(Oc3ccc(-c4nc(-c5ccc(C#N)cc5)co4)cc3)cc2)C(=O)NC(=O)NC1=O ?
7.2

###

Species: Homo sapiens
protocol_summary: Selectivity for MMP13 over MMP12
Each item that follows carries a reported Selectivity ratio.
// return a plain number; no unit text

Reference set (3 entries):
smiles_code: CCOCCC1(Oc2ccc(Oc3ccc(-c4nc(-c5ccccc5C#N)co4)cc3)cc2)C(=O)NC(=O)NC1=O
Selectivity ratio: 178
//
smiles_code: CCOCCC1(Oc2ccc(Oc3ccc(-c4nc(-c5ccccc5F)no4)cc3)cc2)C(=O)NC(=O)NC1=O
Selectivity ratio: 176
//
smiles_code: CCOCCC1(Oc2ccc(Oc3ccc(C(=O)NCc4ccccc4F)cc3)cc2)C(=O)NC(=O)NC1=O
Selectivity ratio: 80

Kindly review the next molecule as well.
I am curious: what Selectivity ratio value has been reported for CCOCCC1(Oc2ccc(Oc3ccc(-c4nc(-c5ccncc5)no4)cc3)cc2)C(=O)NC(=O)NC1=O ?
232

###

Each item that follows carries a reported Selectivity ratio.
Species: Homo sapiens
protocol_summary: Selectivity for MMP13 over MMP12
// return a plain number; no unit text

Reference set (7 entries):
smiles_code: CCOCCC1(Oc2ccc(Oc3ccc(C(=O)NCc4ccccn4)cc3)cc2)C(=O)NC(=O)NC1=O
result_number: 30
//
smiles_code: CCOCCC1(Oc2ccc(Oc3ccc(-c4nc(-c5ccc(C#N)cc5)co4)cc3)cc2)C(=O)NC(=O)NC1=O
result_number: 373
//
smiles_code: COCCC1(Oc2ccc(Oc3ccc(-c4nc(-c5cccc(C#N)c5)co4)cc3)cc2)C(=O)NC(=O)NC1=O
result_number: 181
//
smiles_code: CCOCCC1(Oc2ccc(Oc3ccc(-c4nc(-c5ccc(F)cc5)no4)cc3)cc2)C(=O)NC(=O)NC1=O
result_number: 114
//
smiles_code: CCOCCC1(Oc2ccc(Oc3ccc(-c4nc(-c5cccc(F)c5)no4)cc3)cc2)C(=O)NC(=O)NC1=O
result_number: 56
//
smiles_code: CCOCCC1(Oc2ccc(Oc3ccc(-c4nc(-c5cccc(C#N)c5)co4)cc3)cc2)C(=O)NC(=O)NC1=O
result_number: 134
//
smiles_code: CCOCCC1(Oc2ccc(Oc3ccc(-c4nc(-c5cccnc5)co4)cc3)cc2)C(=O)NC(=O)NC1=O
result_number: 124

Kindly review the next molecule as well.
I am curious: what Selectivity ratio value has been reported for CCOCCC1(Oc2ccc(Oc3ccc(C(=O)NCc4ccc(F)cc4)cc3)cc2)C(=O)NC(=O)NC1=O ?
11

###

Species: Homo sapiens
protocol_summary: Selectivity for MMP13 over MMP8
Mark label 0 for Selectivity ratio values under 200, and label 1 for everything at or above.

Consider the worked cases shown below.
smiles_code: CCOCCC1(Oc2ccc(Oc3ccc(-c4nc(-c5ccccc5F)no4)cc3)cc2)C(=O)NC(=O)NC1=O
category: label 0
//
smiles_code: COCCC1(Oc2ccc(Oc3ccc(-c4nc(-c5cccc(F)c5)co4)cc3)cc2)C(=O)NC(=O)NC1=O
category: label 0
//
smiles_code: CCOCCC1(Oc2ccc(Oc3ccc(-c4nc(-c5ccccc5C#N)co4)cc3)cc2)C(=O)NC(=O)NC1=O
category: label 1
//
smiles_code: CCOCCC1(Oc2ccc(Oc3ccc(-c4nc(-c5cccnc5)no4)cc3)cc2)C(=O)NC(=O)NC1=O
category: label 1
//
smiles_code: CCOCCC1(Oc2ccc(Oc3ccc(-c4nc(-c5ccncc5)no4)cc3)cc2)C(=O)NC(=O)NC1=O
category: label 1

Dear colleague, could you confirm whether CCOCCC1(Oc2ccc(Oc3ccc(-c4nc(-c5ccccc5F)co4)cc3)cc2)C(=O)NC(=O)NC1=O has Selectivity ratio at or above 200?
label 1

Dear colleague, could you confirm whether CCOCCC1(Oc2ccc(Oc3ccc(-c4nc(-c5ccc(F)cc5)co4)cc3)cc2)C(=O)NC(=O)NC1=O has Selectivity ratio at or above 200?
label 1

###

Recorded below: IC50, system Collagenase 3 (Homo sapiens).

Reference set (7 entries):
smiles_code: CCOCCC1(Oc2ccc(Oc3ccc(-c4nnc(-c5ccccc5)o4)cc3)cc2)C(=O)NC(=O)NC1=O
system: Collagenase 3 (Homo sapiens)
result: 12 nM

smiles_code: CCOCCC1(Oc2ccc(Oc3ccc(-c4nc(-c5cccc(F)c5)co4)cc3)cc2)C(=O)NC(=O)NC1=O
system: Collagenase 3 (Homo sapiens)
result: 0.36 nM

smiles_code: CCOCCC1(Oc2ccc(Oc3ccc(C(=O)NCc4ccccc4)cc3)cc2)C(=O)NC(=O)NC1=O
system: Collagenase 3 (Homo sapiens)
result: 8 nM

smiles_code: CCOCCC1(Oc2ccc(Oc3ccc(-c4nc(-c5ccc(C#N)cc5)co4)cc3)cc2)C(=O)NC(=O)NC1=O
system: Collagenase 3 (Homo sapiens)
result: 0.45 nM

smiles_code: CCOCCC1(Oc2ccc(Oc3ccc(-c4nc(-c5ccc(F)cc5)no4)cc3)cc2)C(=O)NC(=O)NC1=O
system: Collagenase 3 (Homo sapiens)
result: 6.1 nM

smiles_code: CCOCCC1(Oc2ccc(Oc3ccc(C(=O)Nc4cccnc4)cc3)cc2)C(=O)NC(=O)NC1=O
system: Collagenase 3 (Homo sapiens)
result: 0.4 nM

smiles_code: CCOCCC1(Oc2ccc(Oc3ccc(C(=O)NCc4cccc(F)c4)cc3)cc2)C(=O)NC(=O)NC1=O
system: Collagenase 3 (Homo sapiens)
result: 0.85 nM

Kindly review the next compound as well.
I am curious: what IC50 value has been reported for COCCC1(Oc2ccc(Oc3ccc(-c4nc(-c5ccc(F)cc5)co4)cc3)cc2)C(=O)NC(=O)NC1=O ?
0.57 nM
